List of MIC tested on S. aureus 53-180.
Answer format: numeric, µg/mL implied, no suffix.

                                 cpd_smiles  reported
0  COc1cc(Cn2ccc3c4c(N)nc(N)nc4ccc32)cc(OC)c1OC     0.061
1    Nc1nc(N)c2c(ccc3c2ccn3Cc2cccc(Cl)c2)n1     0.976

Please turn your attention to the following entry.
Please look up its MIC: CCOC(=O)c1ccc(Cn2ccc3c4c(N)nc(N)nc4ccc32)cc1 1.95

---

- Tested on: S. aureus 53-180
Binarize MIC at 0.5 µg/mL; below is MET, at or above is NOT MET.

                                 cpd_smiles  assigned_label
0    Cc1cccc(C)c1Cn1ccc2c3c(N)nc(N)nc3ccc21         NOT MET
1  Nc1nc(N)c2c(ccc3c2ccn3-c2ccnc3cc(Cl)ccc23)n1             MET
2     Nc1nc(N)c2c(ccc3c2ccn3Cc2cccc(F)c2)n1             MET
3    Nc1nc(N)c2c(ccc3c2ccn3Cc2ccc(Cl)cc2)n1             MET
4        Nc1nc(N)c2c(ccc3c2ccn3Cc2cccnc2)n1         NOT MET
5           Cc1cc2c(ccc3nc(N)nc(N)c32)[nH]1         NOT MET
6          CC(C)CCn1ccc2c3c(N)nc(N)nc3ccc21         NOT MET
7     Cc1noc(C)c1Cn1ccc2c3c(N)nc(N)nc3ccc21         NOT MET
8     N#Cc1ccccc1-n1ccc2c3c(N)nc(N)nc3ccc21             MET
9        Nc1nc(N)c2c(ccc3c2ccn3Cc2ccncc2)n1             MET

Just wondering, is MIC of Nc1cccc(Cn2ccc3c4c(N)nc(N)nc4ccc32)c1 below 0.5 µg/mL? MET
